# Tested on: RAW264.7
# Experiment summary: Antiinflammatory activity against mouse RAW264.7 cells assessed as inhibition of LPS-induced NO production at 25 uM preincubated for 1 hr before LPS challenge measured after 24 hrs by Griess method
# Format: functional
For each record, write down the corresponding inhibition at 25 µM.
Output spec: scalar in %, unitless text.

stdin: For the compound O=c1cc(-c2ccc(Br)cc2)oc2cc(O)c(O)c(O)c12 , give its reported inhibition at 25 µM.
stdout: 27

stdin: Supply reported inhibition at 25 µM belonging to this compound: COc1cc2oc(-c3ccccc3)cc(=O)c2c(OC)c1OC [BAICALEIN TRIMETHYL ETHER]
stdout: 12.1

stdin: Tell me its inhibition at 25 µM given O=c1cc(-c2ccccc2)oc2cc(O)c(O)c(O)c12 [BAICALEIN] as the entry.
stdout: 11.1

stdin: // Input: Nc1ccc(-c2cc(=O)c3c(O)c(O)c(O)cc3o2)cc1 . Output its inhibition at 25 µM only.
stdout: 6.98

stdin: Tell me measured inhibition at 25 µM for COc1cc2oc(-c3ccc(Br)cc3)cc(=O)c2c(OC)c1OC please.
stdout: 89.6

stdin: Quickly give me recorded inhibition at 25 µM for COc1cc2oc(-c3ccc(N)cc3)cc(=O)c2c(OC)c1OC
stdout: 23.1

stdin: Identify measured inhibition at 25 µM corresponding to COc1c(O)cc2oc(-c3ccccc3)cc(=O)c2c1O [OROXYLIN A]
stdout: 12.4

stdin: Determine its reported inhibition at 25 µM: O=c1cc(-c2ccc([N+](=O)[O-])cc2)oc2cc(O)c(O)c(O)c12
stdout: 7.65

stdin: Consider the compound COc1cc2oc(-c3ccc([N+](=O)[O-])cc3)cc(=O)c2c(OC)c1OC . State its measured inhibition at 25 µM.
stdout: 17.4

* * *

# System: RAW264.7
# Experiment summary: Cytotoxicity against mouse RAW264.7 cells assessed as effect on cell viability up to 50 uM after 24 hrs
# Format: cell-based
# Condition notes: raw264.7, 24 h
Readout kind: Activity

{"Smi": "COc1cc2oc(-c3ccc(N)cc3)cc(=O)c2c(OC)c1OC", "Measured target": "RAW264.7", "Result": "Non-toxic"}
{"Smi": "Nc1ccc(-c2cc(=O)c3c(O)c(O)c(O)cc3o2)cc1", "Measured target": "RAW264.7", "Result": "Non-toxic"}
{"Smi": "COc1cc2oc(-c3ccccc3)cc(=O)c2c(OC)c1OC", "Measured target": "RAW264.7", "Result": "Non-toxic"}
{"Smi": "O=c1cc(-c2ccc([N+](=O)[O-])cc2)oc2cc(O)c(O)c(O)c12", "Measured target": "RAW264.7", "Result": "Non-toxic"}
{"Smi": "COc1cc2oc(-c3ccc([N+](=O)[O-])cc3)cc(=O)c2c(OC)c1OC", "Measured target": "RAW264.7", "Result": "Non-toxic"}

stdin: Return Activity for the following compound: COc1cc2oc(-c3ccc(Br)cc3)cc(=O)c2c(OC)c1OC
stdout: Non-toxic

stdin: Answer with the recorded Activity of O=c1cc(-c2ccc(Br)cc2)oc2cc(O)c(O)c(O)c12 only.
stdout: Non-toxic
